Data origin, for the record: ChEMBL document CHEMBL1667736

// reported pIC50 for each item listed
System: SK-OV-3
Method Description: Cytotoxicity against human SKOV3 cells by SRB assay
Assay type: functional, cell-based
Kindly note that pIC50 refers to -log10 of the concentration in mol/L and answer with the value alone.

Ask | Give reported pIC50 value for CO[C@@H](C=C(C)C)C[C@H](C)[C@@H]1CC[C@]2(C)C3=CCC4C(C)(C)C(=O)CC[C@]4(C)[C@H]3CC[C@@]12C (some centres not stated) [CORNUSALTERIN G]
Reply | 4.57

Ask | Recall and state the measured pIC50 for CO[C@H](C=C(C)C)C[C@H](C)[C@@H]1CC[C@]2(C)C3=CCC4C(C)(C)C(=O)CC[C@]4(C)C3=CC[C@@]12C (some centres not stated) [CORNUSALTERIN I] .
Reply | 4.87

Ask | Please supply the value of reported pIC50 for the item COC(C)(C)/C=C/C[C@H](C)[C@@H]1CC[C@]2(C)[C@@H]3CCC4C(C)(C)C(=O)CC[C@]4(C)[C@H]3CC[C@@]12C (some centres not stated) [CORNUSALTERIN B]
Reply | 4.72

Ask | Consider the compound CO[C@H](C=C(C)C)C[C@H](C)[C@@H]1CC[C@]2(C)C3=CCC4C(C)(C)C(=O)CC[C@]4(C)[C@H]3CC[C@@]12C (some centres not stated) [CORNUSALTERIN H] . State its measured pIC50.
Reply | 4.67

Ask | Answer with reported pIC50 of COC(C)(C)/C=C/C[C@H](C)[C@@H]1CC[C@]2(C)C3=CCC4C(C)(C)C(=O)CC[C@]4(C)[C@H]3CC[C@@]12C (stereo partly drawn) [(-)-LEUCOPHYLLONE]
Reply | 4.74

Ask | Give recorded pIC50. CC(C)=C[C@H]1C[C@@H]([C@@H]2CC[C@]3(C)C4=CCC5C(C)(C)C(=O)CC[C@]5(C)[C@H]4CC[C@@]23C)CO1 (some centres not stated) [DEOXYFLINDISSONE]
Reply | 5.44

Ask | Read off the recorded pIC50 for COC(C)(C)/C=C/C[C@H](C)[C@@H]1CC[C@]2(C)[C@@H]3CCC4C(C)(C)[C@@H](O)CC[C@]4(C)[C@H]3CC[C@@]12C (some centres not stated) [CORNUSALTERIN C]
Reply | 4.78

* * *

System: SK-OV-3
Method Description: Cytotoxicity against human SKOV3 cells by SRB assay
Type: functional, cell-based
This listing pairs compounds with measured IC50.
Provide the reading as a plain figure in µM.

Example results:
Ask | Look up and report measured IC50 for this entry: COC(C)(C)/C=C/C[C@H](C)[C@@H]1CC[C@]2(C)C3=CCC4C(C)(C)[C@@H](O)CC[C@]4(C)[C@H]3CC[C@@]12C (stereo partly drawn) [CORNUSALTERIN A]
Reply | 12.5

Ask | // fetch IC50 given entry CC(C)CCC[C@H](C)[C@@H]1CC[C@]2(C)[C@@H]3CC=C4C(C)(C)C(=O)C[C@@H](O)[C@]4(C)[C@H]3CC[C@@]12C [CORNUSALTERIN K]
Reply | 12.8

Let's switch to this compound now.
Ask | Item CC(C)CCC[C@H](C)[C@@H]1CC[C@]2(C)C3=CCC4C(C)(C)C=CC(=O)[C@]4(C)[C@H]3CC[C@@]12C (stereo partly drawn) [CORNUSALTERIN F] : provide IC50
Reply | 27.3

* * *

Test system: SK-OV-3
Method Description: Cytotoxicity against human SKOV3 cells by SRB assay
Type: functional, cell-based
Could you mark each record 1.0 if its IC50 falls strictly under 10 µM, and 0.0 if it equals or exceeds it?

Ask | Given the entry CO[C@@H](C=C(C)C)C[C@H](C)[C@@H]1CC[C@]2(C)C3=CCC4C(C)(C)[C@@H](O)CC[C@]4(C)[C@H]3CC[C@@]12C (stereo not given in full) [CORNUSALTERIN J] , would its reported IC50 be below 10 µM?
Reply | 0.0

Ask | Find out if reported IC50 for C=C(C)/C=C/C[C@H](C)[C@@H]1CC[C@]2(C)C3=CCC4C(C)(C)C(=O)CC[C@]4(C)[C@H]3CC[C@@]12C (stereo not given in full) [CORNUSALTERIN D] is less than 10 µM
Reply | 0.0

Ask | A record lists CC(C)CCC[C@H](C)[C@@H]1CC[C@]2(C)C3=CCC4C(C)(C)C(=O)C=C[C@]4(C)[C@H]3CC[C@@]12C (stereo not given in full) [CORNUSALTERIN E] . Is its IC50 below 10 µM?
Reply | 0.0

Continuing:
Ask | Is the reported IC50 for CC(C)=C[C@@H]1C[C@@H]([C@@H]2CC[C@]3(C)C4=CCC5C(C)(C)C(=O)CC[C@]5(C)[C@H]4CC[C@@]23C)CO1 (stereo not given in full) [CORNUSALTERIN L] strictly below 10 µM?
Reply | 1.0

Ask | Lab note: confirm whether the reported IC50 for this molecule is below 10 µM, equality not counting. molecule: COc1cc([C@@H]2c3cc4c(cc3[C@@H](O[C@@H]3O[C@@H]5CO[C@@H](C)O[C@H]5[C@H](O)[C@H]3O)[C@H]3COC(=O)[C@H]23)OCO4)cc(OC)c1O [ETOPOSIDE]
Reply | 1.0
